# key: entry, value: viability
test: reversal of MRP1-mediated doxorubicin resistance, pilot screen, H69AR cells, doxorubicin co-treatment (AID 601); conditions: H69AR cells, CellTiter-Glo, 72 h; compound alone cytotoxicity; at 10 µM
Expressed in %, but write only the number.

# count of solved cases: 2
compound	units symbol	observed value
O=C(c1ccc(S(=O)(=O)N2CCC(c3nc4ccccc4s3)CC2)cc1)N1CCOCC1	%	71.4
Cc1nnc2c3ccccc3c(-c3ccccc3)nn12	%	68.1

Input line: What viability value was documented for this compound, O=C(Cn1c(=O)n(CC2CCCO2)c(=O)c2ccccc21)c1ccccc1 (stereo not given) ?
Output line: 81.5

Input line: What viability value was documented for this compound, O=C(NCc1ccc2c(c1)OCO2)c1ccc(NS(=O)(=O)c2ccc3c(c2)OCCO3)cc1 ?
Output line: 106

Input line: What viability value was documented for this compound, CCCc1c(OCCCCc2nn[nH]n2)ccc(C(C)=O)c1O ?
Output line: 84.4

Input line: What viability value was documented for this compound, O=C(CCSc1ccccc1)Nc1ccc(S(=O)(=O)N2CCOCC2)cc1 ?
Output line: 104

Input line: What viability value was documented for this compound, COc1cc(SC)ccc1C(=O)Nc1ccccc1C#N ?
Output line: 70.5

Input line: What viability value was documented for this compound, CCOC(=O)N(C)c1ccc(C(O)(C(F)(F)F)C(F)(F)F)cc1 ?
Output line: 102

----------
assay: 384-well plate pilot, post-Golgi transport modulator project, inhibition of yeast transport mutant growth (AID 636); details: absorbance 615 nm, about 18 h, stronger effect = higher value
# key: entry, value: inhibition
Expressed in %, but write only the number.

compound	units symbol	observed value
O=C(c1cnc2sccn2c1=O)N1CCc2ccccc2C1	%	-2.8

Input line: What inhibition value was documented for this compound, CCOc1ccc(/C=N/n2cnnc2)cc1 ?
Output line: -0.52

----------
# key: entry, value: viability
experiment: reversal of MRP1-mediated doxorubicin resistance, pilot screen, H69AR cells, doxorubicin co-treatment (AID 601); details: H69AR cells + 2 uM doxorubicin, CellTiter-Glo, 72 h; measured here: viability with 2 uM doxorubicin; at 10 µM; stronger effect = lower value
Expressed in %, but write only the number.

# count of solved cases: 2
compound	viability / %
c1ccc(-c2noc(-c3cccnc3)n2)nc1	67.5
CC(C)c1ccc(NC(=O)C2CC(=O)N(C(C)C)C2)cc1 (configuration not stated)	87.3

Input line: What viability value was documented for this compound, O=C(c1cnn2c(C(F)F)cc(-c3ccccc3)nc12)N1CCN2CCCC2C1 (configuration not stated) ?
Output line: 80.8

Input line: What viability value was documented for this compound, CCC(=O)Nc1ccc(NC(=O)c2ccccn2)cn1 ?
Output line: 84.6

----------
assay: reversal of MRP1-mediated doxorubicin resistance, pilot screen, H69AR cells, doxorubicin co-treatment (AID 601); settings: H69AR cells, CellTiter-Glo, 72 h; compound alone cytotoxicity; at 10 µM
readout: viability (%)
Expressed in %, but write only the number.

compound	observed value
CN(Cc1cnn(C)c1)C(=O)c1cc2ccccc2oc1=O	103
CC(=O)OCC(=O)[C@@]12OC(C)(C)O[C@@H]1C[C@H]1[C@@H]3C[C@H](F)C4=CC(=O)C=C[C@]4(C)[C@@]3(F)[C@@H](O)C[C@@]12C	106
O=C(O)c1ccccc1Nc1cccc(C(F)(F)F)c1	88.6
CC(=O)C1=C(NC(=O)c2ccccc2F)C[C@@H]2[C@H]1C2(C)C	91.3
O=C(NC1CCCC1)C(NS(=O)(=O)c1cccc2nsnc12)c1ccccc1 (configuration not stated)	79

Input line: What viability value was documented for this compound, COC(=O)CNc1nc(C2CC2)nc2c1nnn2Cc1ccccc1Cl ?
Output line: 94.7

Input line: What viability value was documented for this compound, COc1ccc(-c2c(=O)n(OCc3ccccn3)c3ccccc3[n+]2[O-])cc1OC ?
Output line: 89.2

Input line: What viability value was documented for this compound, COC(=O)c1cccc(NC(=O)CN2CCN(Cc3ccccc3)CC2)c1 ?
Output line: 90.5

Input line: What viability value was documented for this compound, CSc1ccccc1C(=O)NC1CC2CCC1C2 (configuration not stated) ?
Output line: 94.8

Input line: What viability value was documented for this compound, O=C(NCC(=O)N(c1cccnc1)C(C(=O)NC1CCCCC1)c1cccnc1)c1ccco1 (configuration not stated) ?
Output line: 109

Input line: What viability value was documented for this compound, CCCCC[C@H](O)/C=C/[C@@H]1[C@@H](CCCCCCC(=O)O)[C@@H](O)C[C@H]1O ?
Output line: 103

Input line: What viability value was documented for this compound, O=C(O)CSc1ncn[nH]1 ?
Output line: 109

Input line: What viability value was documented for this compound, COc1ccccc1NC(=O)Cn1nnc(-c2ccccc2NC(=O)c2ccco2)n1 ?
Output line: 6.73

Input line: What viability value was documented for this compound, Cc1c(N=C2SCC(=O)N2c2c(C)n(C)n(-c3ccccc3)c2=O)c(=O)n(-c2ccccc2)n1C ?
Output line: 94.2

Input line: What viability value was documented for this compound, O=C(O)c1cccn2c(=O)c3ccccc3nc12 ?
Output line: 95.8

Input line: What viability value was documented for this compound, Cc1cc(S(=O)(=O)n2cnc3ccccc32)c(C)cc1Cl ?
Output line: 102

Input line: What viability value was documented for this compound, Cc1cc(Br)c(S(=O)(=O)n2nnc3ccccc32)cc1C ?
Output line: 81.8

Input line: What viability value was documented for this compound, O=C(Cc1cccs1)NCc1ccc(F)cc1 ?
Output line: 99.6
